# credit: patent US20230088461A1

- target.or.test.system: GPC3 (analyte of Tables 9 and 10) (UniProt P51654 25-559, limits assumed)
- test.protocol: SPR (Biacore T200), purified antibody captured through Fc, GPC3 as analyte, 1:1 model
Readings of kon for the listed binders
# number only, unit M⁻¹ s⁻¹ dropped from output

Entry under review: 5VH1VL2-hIgG1 (antibody, V domains shown, Humanized LAb19305, full-length human IgG1/kappa) VH: QVQLVQSGAEVKKPGASVKVSCKASGYTFTAYEMHWVRQAPGQRLEWMGGIDPETGNTAYSQNFKGRVTITRDTSASTAYMELSSLRSEDTAVYYCARYYSFAYWGQGTLVTVSS VL: DIVMTQSPLSLPVTPGEPASISCRSSQTIVHSNGNTYLEWYLQKPGQSPQLLIYKVSNRFSGVPDRFSGSGSGTDFTLKISRVEAEDVGVYYCFQVSHVPYTFGGGTKLEIKR . Reported kon?
107000

Further, for 5VH2VL3-hIgG1 (antibody, V domains shown, Humanized LAb19305, full-length human IgG1/kappa) VH: QVQLVQSGAEVKKPGASVKVSCKASGYTFTAYEMHWVRQAPGQGLEWMGGIDPETGNTAYSQNFKGRVTMTRDTSTSTVYMELSSLRSEDTAVYYCARYYSFAYWGQGTLVTVSS VL: DIVMTQSPDSLAVSLGERATINCRSSQTIVHSNGNTYLEWYQQKPGQPPKLLIYKVSNRFSGVPDRFSGSGSGTDFTLTISSLQAEDVAVYYCFQVSHVPYTFGGGTKLEIKR ?
161000

Further, for Chimeric LAb19305-hIgG1 (antibody, V domains shown, The mouse VH/VL numbers follow the parallel order of the lists, as for LAb19305) VH: QVQLQQSGAELVRPGASVTLSCKASGYTFTAYEMHWVKQTPVYGLEWIGGIDPETGNTAYSQNFKGKATLTADKSSSTAYMEVRSLTSEDSAVYYCSRYYSFAYWGQGTLVTVSA VL: DVLMTQTPLSLPVSLGDQASISCRSSQTIVHSNGNTYLEWYLQKPGQSPKLLIYKVSNRFSGVPDRFSGSGSGTDFTLKISRVEAEDLGVYYCFQVSHVPYTFGGGTKLEIKR ?
123000

Further, for 5VH2VL2-hIgG1 (antibody, V domains shown, Humanized LAb19305, full-length human IgG1/kappa) VH: QVQLVQSGAEVKKPGASVKVSCKASGYTFTAYEMHWVRQAPGQGLEWMGGIDPETGNTAYSQNFKGRVTMTRDTSTSTVYMELSSLRSEDTAVYYCARYYSFAYWGQGTLVTVSS VL: DIVMTQSPLSLPVTPGEPASISCRSSQTIVHSNGNTYLEWYLQKPGQSPQLLIYKVSNRFSGVPDRFSGSGSGTDFTLKISRVEAEDVGVYYCFQVSHVPYTFGGGTKLEIKR ?
156000
